- run.description: Oral bioavailability in C57BL/6 mouse at 1 mg/kg, iv or 10 mg/kg by HPLC analysis
- Type: ADME, organism-based
- condition.info: in vivo
measured.attribute: bioavailability (%)
Value expressed in %; do not type the unit.

| molecule | measured.attribute | recorded.value |
| --- | --- | --- |
| N#Cc1ccc(S[C@H]2O[C@H](CO)[C@H](O)[C@H](n3cc(-c4cc(F)c(F)c(F)c4)nn3)[C@H]2O)cc1Cl | bioavailability | 95 |
| OC[C@H]1O[C@H](Sc2ccc(Cl)c(Cl)c2)[C@H](O)[C@@H](n2cc(-c3cc(F)c(F)c(F)c3)nn2)[C@H]1O | bioavailability | 75 |

Proceed to the following item.
Problem: Name the reported bioavailability value associated with the molecule OC[C@H]1O[C@H](Sc2cncc(Br)c2)[C@H](O)[C@@H](n2cc(-c3cc(F)c(F)c(F)c3)nn2)[C@H]1O [SELVIGALTIN]
Solution: 68

====

- run.description: Lipophilicity, logD of the compound in Octanol/potassium phosphate buffer at pH 7.4 after 1 hr by shake-flask based LC-MS/MS analysis
- Format: physicochemical
- condition.info: octanol/water, pH 7.4, 1 h
Parameter logD: see the listing below.
Output spec: single numeric token, no unit.

| structure.as.smiles | recorded.value |
| --- | --- |
| CCCCSC[C@H]1O[C@@H](S[C@@H]2O[C@H](CO)[C@H](O)[C@H](n3cc(-c4cccc(F)c4)nn3)[C@H]2O)[C@H](O)[C@@H](n2cc(-c3cccc(F)c3)nn2)[C@H]1O | 3.4 |

Problem: Name the reported logD value associated with the compound N#Cc1ccc(S[C@H]2O[C@H](CO)[C@H](O)[C@H](n3cc(-c4cc(F)c(F)c(F)c4)nn3)[C@H]2O)cc1Cl
Solution: 3.7

Problem: Follow-up entry: CC(=O)Nc1ccc(S[C@H]2O[C@H](CO)[C@H](O)[C@H](n3cc(-c4cc(F)c(F)c(F)c4)nn3)[C@H]2O)cc1
Solution: 2.28

Problem: Follow-up entry: OC[C@H]1O[C@H](Sc2cncc(Br)c2)[C@H](O)[C@@H](n2cc(-c3cc(F)c(F)c(F)c3)nn2)[C@H]1O
Solution: 3

Problem: Follow-up entry: OC[C@H]1O[C@@H](S[C@@H]2O[C@H](CO)[C@H](O)[C@H](n3cc(-c4cccc(F)c4)nn3)[C@H]2O)[C@H](O)[C@@H](n2cc(-c3cccc(F)c3)nn2)[C@H]1O
Solution: 2.1

Problem: Follow-up entry: OC[C@H]1O[C@H](Sc2ccc(Cl)c(Cl)c2)[C@H](O)[C@@H](n2cc(-c3cc(F)c(F)c(F)c3)nn2)[C@H]1O
Solution: 4.6

Problem: Follow-up entry: C[C@H]1O[C@@H](S[C@@H]2O[C@H](CO)[C@H](O)[C@H](n3cc(-c4cccc(F)c4)nn3)[C@H]2O)[C@H](O)[C@@H](n2cc(-c3cccc(F)c3)nn2)[C@H]1O
Solution: 2.4
